# Organism: Homo sapiens
# Assay explanation: To identify inhibition of the IFN signalling (Jak-Stat) pathway via expression of an eGFP reporter gene under the control of an IFN-stimulated response element (ISRE) containing MxA promoter.
# Type: functional
# Parameters: scale not given: direction of the effect not stated beside the values
# Experimental conditions: 30 µM
Assay metric: Percent Effect (%)
Express the result in % but write the number alone.

Asked: Could you please provide reported Percent Effect for CCn1cc(NC(=O)C2CCN(CCOC(C)C)CC2)cn1 ? Thanks!
Given back: 6.54

Asked: // Input: CC(C)c1nnc(NC(=O)NCc2ccc(CO)c(F)c2)s1 . Output its Percent Effect only.
Given back: 26.1

Asked: Provide measured Percent Effect value, entry: c1ccc(-c2noc3c2CN(CC2CC2)CC3)cc1
Given back: 11.2

Asked: Please supply the value of reported Percent Effect for the item O=C(c1ccc2c(c1)OCO2)N1CCCSCC1CN1CCCC1 (stereo unspecified)
Given back: -0.0393

Asked: Note down Percent Effect recorded for c1ccc(Cn2cc3c(n2)C(CNCc2ccco2)OCC3)nc1 (stereo unspecified)
Given back: -8.58

Asked: // Input: COCC(=O)N1CCC2(CCN(Cc3ccccn3)CC2)CC1 . Output its Percent Effect only.
Given back: -3.67

---

# Target desc: AMP-activated protein kinase, AMPK (Homo sapiens) (UniProt P54646+O43741+P54619+Q9UGJ0+Q9Y478+Q13131+Q9UGI9)
# Assay explanation: AMP-dependent Kinase enzyme assay. An in vitro enzyme assay that detects ADP turnover that is directly proportional to AMPK activity. This uses naive AMPK that is activated during the assay with MK-8722
# Format: functional
# Design: scale not given: direction of the effect not stated beside the values
# Experimental conditions: 30 µM
Assay metric: Percent Effect (%)
Just the number in %, nothing appended.

Asked: # return recorded Percent Effect for entry COCc1ccc(CN2CCC(O)(Cn3ccc4ncccc43)CC2)o1
Given back: -2.95

Asked: Dear colleague, please send me the reported Percent Effect for Cn1nc(CNC(=O)C2COc3ccccc3O2)cc1C1CC1 (stereo unspecified) when you can.
Given back: 21.3

Asked: Give me measured Percent Effect, please, for this molecule: CCOc1ccccc1CSc1nnc(CC2CCS(=O)(=O)C2)n1C (stereo unspecified)
Given back: -1.67

Asked: State its Percent Effect: Cc1ccc(NC2CCN(C(=O)c3ccc(Cl)o3)CC2)nn1
Given back: 5.42

Asked: Tell me measured Percent Effect for CCC(NC(=O)C1CCN(S(=O)(=O)N(C)C)CC1)c1ccc(C)c(C)c1 (stereo unspecified) please.
Given back: 0.886

Asked: Report measured Percent Effect; entry is CC(O)CN1CCC(CNCc2cccc(OC(C)C)c2)CC1 (stereo unspecified)
Given back: -23.9

---

# Target desc: Tyrosyl-tRNA synthetase, putative (Trypanosoma cruzi (strain CL Brener)) (UniProt Q4DSP6)
# Sequence (Q4DSP6 as listed by the source): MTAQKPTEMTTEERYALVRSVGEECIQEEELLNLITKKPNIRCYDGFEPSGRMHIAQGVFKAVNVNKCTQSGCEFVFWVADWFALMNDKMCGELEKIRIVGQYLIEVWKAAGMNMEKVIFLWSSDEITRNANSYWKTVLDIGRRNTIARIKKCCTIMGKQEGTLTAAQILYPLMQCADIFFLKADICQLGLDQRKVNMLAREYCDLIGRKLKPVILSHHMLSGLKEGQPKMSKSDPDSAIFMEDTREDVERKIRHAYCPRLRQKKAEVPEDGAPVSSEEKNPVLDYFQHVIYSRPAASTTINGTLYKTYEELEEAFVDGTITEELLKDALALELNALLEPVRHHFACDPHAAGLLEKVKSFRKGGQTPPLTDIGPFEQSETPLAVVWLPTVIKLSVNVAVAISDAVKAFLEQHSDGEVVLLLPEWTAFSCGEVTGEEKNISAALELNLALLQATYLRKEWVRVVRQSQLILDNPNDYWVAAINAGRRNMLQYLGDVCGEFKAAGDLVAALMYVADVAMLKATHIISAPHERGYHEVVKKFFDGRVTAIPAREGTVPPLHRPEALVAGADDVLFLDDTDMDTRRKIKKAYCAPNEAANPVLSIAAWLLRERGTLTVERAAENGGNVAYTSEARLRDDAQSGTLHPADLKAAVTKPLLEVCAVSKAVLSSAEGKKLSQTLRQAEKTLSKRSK
# Assay explanation: Trypanosoma cruzi tyrosyl tRNA synthetase (TcYRS) SOP
# Type: functional
# Design: scale not given: direction of the effect not stated beside the values
# Experimental conditions: 30 µM
Please enter 1 (yes) where Percent Effect is greater than or equal to 10%, and 0 (no) where it is lower.

Asked: Dear colleague, could you confirm whether CN(C)C[C@H]1OC[C@@H]2CCN(S(=O)(=O)c3cccs3)C[C@@H]21 has Percent Effect at or above 10%?
Given back: 0 (no)

Asked: Does Percent Effect meet or surpass 10% for Cc1cccc(C(=O)NC(CN2CCCC2=O)c2ccccc2)n1 (stereo unspecified) ?
Given back: 1 (yes)

Asked: Hi, just wondering whether CS(=O)(=O)NCCNC(=O)C1(c2cccc(Cl)c2)CC1 shows Percent Effect of 10% or higher.
Given back: 0 (no)

Asked: Can Cc1csc(N2CCN(CC(=O)Nc3c(C)n[nH]c3C)CC2C)n1 (stereo unspecified) be said to have Percent Effect at or above 10%?
Given back: 1 (yes)

Asked: Identify whether the reported Percent Effect of the following molecule is 10% or greater: Cc1oncc1C(=O)NCc1cc(=O)n2c(n1)CN(C)CCC2
Given back: 1 (yes)

Asked: hey, is Percent Effect for this one >= 10%? Cc1nn(C(C)C)c(C)c1NC(=O)c1ccccc1
Given back: 0 (no)
